B1: Azoarcus group I ribozyme (parent)
chain: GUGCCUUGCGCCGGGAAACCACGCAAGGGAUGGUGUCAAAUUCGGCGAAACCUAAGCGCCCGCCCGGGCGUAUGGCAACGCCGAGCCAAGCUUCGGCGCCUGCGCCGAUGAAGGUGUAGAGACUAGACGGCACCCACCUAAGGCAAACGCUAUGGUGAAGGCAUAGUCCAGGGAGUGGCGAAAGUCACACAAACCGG

# Variants of: B1
# assay method text: reverse-splicing fitness (ratio to wild type); higher = more active; in vitro selection; Mg2+ level not given
Label scheme for reverse-splicing fitness: lower than 0.01 is -1, 0.01 and above is 1.

# variant, category label
measured = [
    ("C82U A111C A120U C169A U176C", -1),
]

Query :: # check: reverse-splicing fitness of C82A A111G A120G A145U is greater than or equal to 0.01
Result :: 1

Query :: # check: reverse-splicing fitness of C82G A111U C169G U176G is greater than or equal to 0.01
Result :: -1

Query :: # check: reverse-splicing fitness of C82G A120C A145G C169U U176G is greater than or equal to 0.01
Result :: -1

Query :: # check: reverse-splicing fitness of C82A A111G A120U A145G C150A C169A U176G is greater than or equal to 0.01
Result :: -1

Query :: # check: reverse-splicing fitness of C82A A111U A120G C169G is greater than or equal to 0.01
Result :: 1

Query :: # check: reverse-splicing fitness of C82A A120C A145U C150A C169U U176G is greater than or equal to 0.01
Result :: -1

Query :: # check: reverse-splicing fitness of A111U A120G A145U C150G C169A is greater than or equal to 0.01
Result :: 1
